# System: A/Aichi/2/68 (H3N2)
# method: microbe, parasite or virus in culture
# Assay type: cell-based
# experimentalContext: Influenza A virus, H3N2, MDCK, read-out: IC50 ± SD, H3N2
assayReadout: pIC50
Bear in mind: pIC50 is minus log10 of a mol/L concentration; give just that figure.

(Q) Tell me measured pIC50 for C=Cc1c(C)c2cc3nc(c4c5[nH]c(cc6nc(cc1[nH]2)C(C)=C6CC)c(C)c5C(=O)C4)[C@@H](CCC(=O)O)[C@@H]3C [PPa, pyropheophorbide a, reference compound] please.
(A) 5.91

* * *

# System: Influenza A/Puerto Rico/8/34 (H1N1)
# method: microbe, parasite or virus in culture
# experimentalContext: H1N1|PR8, MDCK, read-out: IC50 ± SD, PR8
assayReadout: IC50 (nM)
Could you give me the number in nM? Just the number is fine.

(Q) Tell me measured IC50 for C=Cc1c(C)c2cc3nc(c4c5[nH]c(cc6nc(cc1[nH]2)C(C)=C6CC)c(C)c5C(=O)C4)[C@@H](CCC(=O)O)[C@@H]3C [PPa, pyropheophorbide a, reference compound] please.
(A) 320
